Origin of values: the RNAGym collection of RNA variant scans (doi:10.1073/pnas.2313332121)

B1: TPR t1 (parent)
chain: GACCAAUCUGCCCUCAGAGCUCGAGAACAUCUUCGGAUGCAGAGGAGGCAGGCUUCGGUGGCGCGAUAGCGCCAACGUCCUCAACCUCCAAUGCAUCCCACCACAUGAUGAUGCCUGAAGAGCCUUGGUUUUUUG

variants of: B1; assay: polymerase ribozyme fitness, log enrichment relative to wild type (log ratio); higher = more active; in vitro selection for triplet polymerase activity
The label depends only on polymerase ribozyme fitness (log ratio): True if it is at least -3, False if it is smaller.

variant-key: C80G
assigned-class: False
//
variant-key: C8U C22U C53U A100U
assigned-class: False
//
variant-key: U14G C72G
assigned-class: True
//
variant-key: A2G G52A C99U
assigned-class: False
//
variant-key: A6U A46C C85G G113A G135C
assigned-class: False
//
variant-key: G71C U130A
assigned-class: True
//
variant-key: C56A A121G
assigned-class: True
//
variant-key: C28U U55A G71C
assigned-class: True
//
variant-key: C85U C97A C115G
assigned-class: False
//
variant-key: U9G C20A U59A
assigned-class: False
//
variant-key: C73G C82U
assigned-class: True
//
variant-key: G58A C82U C115A C124U
assigned-class: True
//
variant-key: C8G G113U
assigned-class: True
//
variant-key: A5G U9C C40U C56U U59A
assigned-class: True
//
variant-key: C53A C79U C94G C101A
assigned-class: True
//
variant-key: G45U A66C
assigned-class: True
//
variant-key: U9C G60A U130A
assigned-class: True
//
variant-key: A18U G42A C53G C85U C89A
assigned-class: False
//
variant-key: U38G C62A U106A G113U
assigned-class: False
//
variant-key: A26U C72U C124U
assigned-class: True
//
variant-key: C12A G17A A111U U116C
assigned-class: False
